Test system: soybean (Glycine max)
protocol: Test A preemergence soil spray, visual injury rating 0-100
Type: in vivo
cond: 16 g ai/ha, 0 to 100 scale, 10 days
Description: […]
quantity: Soybean plant response rating

CC1(C(=O)NC2C=CC(C(=O)O)C2)CN(c2cc(F)cc(F)c2)C(=O)O1 (stereo not shown) ... 0
C=CC1(C(=O)NC2COC(C(=O)OC)C2)CN(c2cc(F)cc(F)c2)C(=O)O1 (stereo not shown) ... 0
CCOC(=O)C1C=CC(NC(=O)C2(C)CN(c3cccc(OC(F)(F)F)c3)C(=O)O2)C1 (stereo not shown) ... 0
CC1(C(=O)NC2CC=C(C(=O)O)C2)CN(c2cc(Cl)cc(Cl)c2)C(=O)O1 (stereo not shown) [Compound 158] ... 0
CC1(C(=O)NC2CC(C(=O)OCC(F)(F)F)C2)CN(c2cc(F)cc(F)c2)C(=O)O1 (stereo not shown) ... 0
CCOC(=O)C1=CCC(NC(=O)C2(C)CN(c3cc(F)cc(Cl)c3)C(=O)O2)C1 (stereo not shown) ... 0
C=CC1(C(=O)NC2C=CC(C(=O)OC)C2)CN(c2cc(F)cc(F)c2)C(=O)O1 (single isomer, unassigned) [Compound 167] ... 70
CCOC(=O)C1=CCC(NC(=O)C2(C)CN(c3cc(F)cc(F)c3)C(=O)O2)C1 (stereo not shown) ... 100
C=CC1(C(=O)NC2C=CC(C(=O)OC)C2)CN(c2cc(F)cc(F)c2)C(=O)O1 (single isomer, unassigned) [Compound 168] ... 0
CC1(C(=O)NC2CC=C(C(=O)OCC3CC3)C2)CN(c2cc(F)cc(Cl)c2)C(=O)O1 (stereo not shown) ... 0
C=CC1(C(=O)NC2CC(C(=O)OC)C2)CN(c2cc(F)cc(F)c2)C(=O)O1 (stereo not shown) [Compound 173] ... 30
CC1(C(=O)NC2CC(C(=O)O)C2)CN(c2cc(F)cc(F)c2)C(=O)O1 (stereo not shown) ... 0
Cc1cc(C)cc(N2CC(C)(C(=O)NC3C=CC(C(=O)O)C3)OC2=O)c1 (stereo not shown) ... 0
